In this section, each of the compounds is paired with its reported IC50.
# targetEntity: CYP3A4 (Homo sapiens)
# methodSummary: Cocktail assay for CYPs, midazolam 1′-hydroxylation (CYP3A4), human liver microsomes
# Format: biochemical
# Design: 0.1 mg/mL protein human liver microsomes (BD Gentest); tissue BD Gentest; host or cells: human liver microsomes
# testParameters: 2 μM midazolam, 0.1 mg/mL human liver microsomes, 10 min at 37° C.; read-out: CYP IC50 (nM) 3A4 (MDZ)
# Sequence (P08684 whole entry): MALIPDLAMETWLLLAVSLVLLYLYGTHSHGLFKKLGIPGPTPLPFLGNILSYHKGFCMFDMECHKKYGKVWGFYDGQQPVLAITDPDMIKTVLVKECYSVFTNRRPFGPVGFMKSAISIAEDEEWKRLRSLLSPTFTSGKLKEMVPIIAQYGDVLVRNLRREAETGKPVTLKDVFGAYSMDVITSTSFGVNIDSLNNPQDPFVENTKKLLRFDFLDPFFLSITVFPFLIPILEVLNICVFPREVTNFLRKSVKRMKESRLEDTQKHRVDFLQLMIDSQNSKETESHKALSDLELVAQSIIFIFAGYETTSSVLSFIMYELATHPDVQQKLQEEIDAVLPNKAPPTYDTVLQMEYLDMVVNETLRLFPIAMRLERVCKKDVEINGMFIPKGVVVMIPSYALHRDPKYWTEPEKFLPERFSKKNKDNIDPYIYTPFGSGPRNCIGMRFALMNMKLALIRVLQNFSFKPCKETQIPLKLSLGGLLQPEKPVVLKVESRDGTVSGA
State the answer as a number, implicitly in nM.

Some compounds with known IC50 results, for comparison:
O=C(C1CC1)N1CCCC1c1ccccc1-c1cncn1CCc1ccc(F)cc1 (single isomer, unassigned) [Compound 44a] :: 46.6
CC(C)NC(=O)N1CCCC1c1ccccc1-c1cncn1CCc1ccc(F)cc1 (single isomer, unassigned) [Compound 46b] :: 6.1

INPUT: State, for CYP3A4 (Homo sapiens), measured IC50 of the compound listed here: O=C(C1CC1)N1CCCC1c1ccccc1-c1cncn1CCc1ccc(F)cc1 (single isomer, unassigned) [Compound 44b]
OUTPUT: 6.7

INPUT: State, for CYP3A4 (Homo sapiens), measured IC50 of the compound listed here: O=C(c1ccc(N2CCOCC2)nc1)N1CCCC1c1ccccc1-c1cncn1CCc1ccc(F)cc1 (single isomer, unassigned) [Compound 43a]
OUTPUT: 36.3

INPUT: State, for CYP3A4 (Homo sapiens), measured IC50 of the compound listed here: CS(=O)(=O)N1CCCC1c1ccccc1-c1cncn1CCc1ccc(F)cc1 (single isomer, unassigned) [Compound 23a]
OUTPUT: 36.4

INPUT: State, for CYP3A4 (Homo sapiens), measured IC50 of the compound listed here: C[C@@H](NS(=O)(=O)c1cnc(N2CCN3C[C@H](O)C[C@H]3C2)s1)c1ccccc1-c1cncn1CCc1ccc(F)cc1 [Compound 6a]
OUTPUT: 7.5

---

# targetEntity: CYP2D6 (Homo sapiens, UniProt P10635)
# Construct: 0.1 mg/mL protein human liver microsomes (BD Gentest); tissue BD Gentest; host or cells: human liver microsomes
# Sequence (P10635 whole entry): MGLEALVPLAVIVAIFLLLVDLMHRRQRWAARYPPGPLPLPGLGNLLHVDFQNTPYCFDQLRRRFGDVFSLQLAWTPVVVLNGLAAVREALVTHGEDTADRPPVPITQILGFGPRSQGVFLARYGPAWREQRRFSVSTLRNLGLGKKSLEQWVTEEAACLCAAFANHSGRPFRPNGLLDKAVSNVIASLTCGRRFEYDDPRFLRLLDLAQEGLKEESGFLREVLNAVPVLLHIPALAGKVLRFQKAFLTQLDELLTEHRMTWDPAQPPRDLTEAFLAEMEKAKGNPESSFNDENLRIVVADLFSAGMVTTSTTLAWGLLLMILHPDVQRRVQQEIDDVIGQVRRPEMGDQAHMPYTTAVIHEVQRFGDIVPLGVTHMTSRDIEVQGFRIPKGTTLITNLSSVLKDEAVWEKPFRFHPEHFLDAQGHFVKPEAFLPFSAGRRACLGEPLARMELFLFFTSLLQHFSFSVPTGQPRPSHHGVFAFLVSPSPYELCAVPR
# methodSummary: Cocktail assay for CYPs, dextromethorphan O-demethylation (CYP2D6), human liver microsomes
# Assay type: biochemical
# testParameters: 5 μM dextromethorphan, 0.1 mg/mL human liver microsomes, 10 min at 37° C.; read-out: CYP IC50 (nM) 2D6
In this section, each of the molecules is paired with its reported IC50.
State the answer as a number, implicitly in nM.

Some molecules with known IC50 results, for comparison:
COc1ccc(OC)c(S(=O)(=O)N2CCCC2c2ccccc2-c2cncn2CCc2ccc(F)cc2)c1 (stereo not drawn) :: 3480
C[C@H](NS(=O)(=O)c1cnc(N2CCN3C[C@H](O)C[C@H]3C2)s1)c1ccccc1-c1cncn1CCc1ccc(F)cc1 :: 3500
O=S(=O)(c1ccc(N2CCC(O)CC2)nc1)N1CCCC1c1ccccc1-c1cncn1CCc1ccc(F)cc1 (single isomer, unassigned) [Compound 32] :: 5820

Please examine the following record next.
INPUT: Name the recorded IC50 of the molecule listed here: O=S(=O)(c1ccc(N2CCN(CCO)CC2)nc1)N1CCCC1c1ccccc1-c1cncn1CCc1ccc(F)cc1 (single isomer, unassigned) [Compound 35a]
OUTPUT: 4600

---

# targetEntity: CYP2C9 (Homo sapiens)
# Construct: 0.1 mg/mL protein human liver microsomes (BD Gentest); tissue BD Gentest; host or cells: human liver microsomes
# Sequence (P11712 whole entry): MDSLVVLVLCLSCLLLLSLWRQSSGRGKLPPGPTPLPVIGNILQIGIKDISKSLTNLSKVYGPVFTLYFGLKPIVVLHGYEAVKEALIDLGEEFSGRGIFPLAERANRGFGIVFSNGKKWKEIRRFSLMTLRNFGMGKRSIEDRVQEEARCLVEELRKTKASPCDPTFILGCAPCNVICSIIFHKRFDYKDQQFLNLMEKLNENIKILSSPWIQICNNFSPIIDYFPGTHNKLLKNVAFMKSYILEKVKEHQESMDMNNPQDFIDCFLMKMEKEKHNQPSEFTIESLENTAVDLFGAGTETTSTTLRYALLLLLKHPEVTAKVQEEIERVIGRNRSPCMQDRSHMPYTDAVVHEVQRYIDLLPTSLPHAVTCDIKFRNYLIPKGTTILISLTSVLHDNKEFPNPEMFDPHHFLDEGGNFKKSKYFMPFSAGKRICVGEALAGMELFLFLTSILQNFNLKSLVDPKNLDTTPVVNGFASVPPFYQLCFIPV
# methodSummary: Cocktail assay for CYPs, diclofenac 4′-hydroxylation (CYP2C9), human liver microsomes
# Type: biochemical
# testParameters: 5 μM diclofenac, 0.1 mg/mL human liver microsomes, 10 min at 37° C.; read-out: CYP IC50 (nM) 2C9
In this section, each of the molecules is paired with its reported IC50.
State the answer as a number, implicitly in nM.

CC(c1ccccc1-c1cncn1CCc1ccc(F)cc1)N(C)S(=O)(=O)c1cnc(N2CCN(C)CC2)s1 (centres unmarked) [Compound 4] :: 2200
Fc1ccc(CCn2cncc2-c2ccccc2C2CCCN2)cc1 (centres unmarked) [Compound 40] :: 4560
CC(=O)Nc1ncc(S(=O)(=O)NC(C)(C)c2ccccc2-c2cncn2CCc2ccc(F)cc2)s1 [Compound 7] :: 5990
O=S(=O)(c1cnc(N2CCN3C[C@H](O)C[C@H]3C2)s1)N1CCCC1c1ccccc1-c1cncn1CCc1ccc(F)cc1 (single isomer, unassigned) [Compound 22b] :: 1690
O=S(=O)(NCCc1ccccc1-c1cncn1CCc1ccc(F)cc1)c1cccnc1 [Compound 14] :: 7410

Please examine the following record next.
INPUT: Name the recorded IC50 of the molecule listed here: O=S(=O)(c1ccc2c(c1)OCO2)N1CCCC1c1ccccc1-c1cncn1CCc1ccc(F)cc1 (centres unmarked) [Compound 26]
OUTPUT: 1160

---

# targetEntity: CYP2D6 (Homo sapiens)
# Construct: 0.1 mg/mL protein human liver microsomes (BD Gentest); tissue BD Gentest; host or cells: human liver microsomes
# methodSummary: Cocktail assay for CYPs, dextromethorphan O-demethylation (CYP2D6), human liver microsomes
# Format: biochemical
# testParameters: 5 μM dextromethorphan, 0.1 mg/mL human liver microsomes, 10 min at 37° C.; read-out: CYP IC50 (nM) 2D6
observedProperty: IC50

INPUT: Name the recorded IC50 of the compound listed here: O=C(C1CC1)N1CCCC1c1ccccc1-c1cncn1CCc1ccc(F)cc1 (single isomer, unassigned) [Compound 44b]
OUTPUT: > 10000 nM

INPUT: Name the recorded IC50 of the compound listed here: CC(C)NC(=O)N1CCCC1c1cccc(-c2cncn2CCc2ccc(F)cc2)c1 (stereo not drawn)
OUTPUT: ≥ 10000 nM

INPUT: Name the recorded IC50 of the compound listed here: CC(=O)Nc1ncc(S(=O)(=O)N2CCCC2c2ccccc2-c2cncn2C2CC2)s1 (stereo not drawn)
OUTPUT: > 10000 nM

---

# targetEntity: CYP3A4 (Homo sapiens, UniProt P08684)
# methodSummary: IC50 vs CYP3A by inhibition of lopinavir metabolism in human liver microsomes
# Type: biochemical
# Design: 0.01 mg/mL protein human liver microsomes (BD Gentest); tissue BD Gentest; host or cells: human liver microsomes
# testParameters: 1.5 μM lopinavir, 0.01 mg/mL human liver microsomes, 8 min at 37° C.; read-out: CYP IC50 (nM) 3A4 (LPV)
# Sequence (P08684 2-503): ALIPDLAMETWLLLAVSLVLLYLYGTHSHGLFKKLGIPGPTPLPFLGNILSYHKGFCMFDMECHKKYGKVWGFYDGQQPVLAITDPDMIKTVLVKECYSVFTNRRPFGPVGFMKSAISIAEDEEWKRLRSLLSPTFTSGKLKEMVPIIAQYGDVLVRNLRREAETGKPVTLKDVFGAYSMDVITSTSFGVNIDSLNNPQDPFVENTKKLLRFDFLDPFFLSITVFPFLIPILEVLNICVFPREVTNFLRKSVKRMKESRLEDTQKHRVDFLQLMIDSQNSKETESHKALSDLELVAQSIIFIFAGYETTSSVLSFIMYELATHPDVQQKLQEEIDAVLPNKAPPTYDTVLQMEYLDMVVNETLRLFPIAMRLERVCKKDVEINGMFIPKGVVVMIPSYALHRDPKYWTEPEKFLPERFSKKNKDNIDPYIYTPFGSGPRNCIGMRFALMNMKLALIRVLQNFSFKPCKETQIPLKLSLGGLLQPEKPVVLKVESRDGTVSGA
observedProperty: IC50 (nM)
State the answer as a number, implicitly in nM.

CC(C)NC(=O)N1CCCC1c1ccccc1-c1cncn1CCc1ccc(F)cc1 (single isomer, unassigned) [Compound 46b] :: 6.2
CC(C)OC(=O)N1CCCC1c1cccc(-c2cncn2CCc2ccc(F)cc2)c1 (stereo not shown) [Compound 56] :: 11.8
CC(C)(C)OC(=O)N1CCCC1c1ccccc1-c1cncn1CCc1ccc(F)cc1 (stereo not shown) [Compound 38] :: 5.5
COc1ccc(OC)c(S(=O)(=O)N2CCCC2c2cccc(-c3cncn3CCc3ccc(F)cc3)c2)c1 (single isomer, unassigned) [Compound 53a] :: 2
O=C(C1CCOCC1)N1CCCC1c1cccc(-c2cncn2CCc2ccc(F)cc2)c1 (single isomer, unassigned) [Compound 49a] :: 29.6
O=C(C1CC1)N1CCCC1c1ccccc1-c1cncn1CCc1ccc(F)cc1 (single isomer, unassigned) [Compound 44a] :: 20.1
CN(C)c1ccc(S(=O)(=O)N2CCCC2c2ccccc2-c2cncn2CCc2ccc(F)cc2)cn1 (single isomer, unassigned) [Compound 28a] :: 0.7
C[C@H](NS(=O)(=O)c1cnc(N2CCN3C[C@H](O)C[C@H]3C2)s1)c1ccccc1-c1cncn1CCc1ccc(F)cc1 [Compound 6b] :: 40.3

INPUT: Name the recorded IC50 of the molecule listed here: CC(C)OC(=O)N1CCCC1c1ccccc1-c1cncn1CCc1ccc(F)cc1 (single isomer, unassigned) [Compound 39a]
OUTPUT: 4.3

INPUT: Name the recorded IC50 of the molecule listed here: O=S(=O)(NCc1ccccc1-c1cncn1CCc1ccc(F)cc1)c1cccnc1 [Compound 17]
OUTPUT: 35.9

---

# targetEntity: UniProt P08684
# methodSummary: IC50 vs CYP3A by inhibition of lopinavir metabolism in human liver microsomes
# Format: biochemical
# Set-up: 0.01 mg/mL protein human liver microsomes (BD Gentest); tissue BD Gentest; host or cells: human liver microsomes
# testParameters: 1.5 μM lopinavir, 0.01 mg/mL human liver microsomes, 8 min at 37° C.; read-out: CYP IC50 (nM) 3A4 (LPV)
observedProperty: IC50 (nM)
State the answer as a number, implicitly in nM.

Some compounds with known IC50 results, for comparison:
O=S(=O)(c1ccc(N2CCC(O)CC2)nc1)N1CCCC1c1ccccc1-c1cncn1CCc1ccc(F)cc1 (single isomer, unassigned) [Compound 33] :: 12.6
CS(=O)(=O)N1CCCC1c1ccccc1-c1cncn1CCc1ccc(F)cc1 (single isomer, unassigned) [Compound 23b] :: 17.2

INPUT: State, for UniProt P08684, measured IC50 of the compound listed here: CC(NS(=O)(=O)c1cnc(N2CCN(C)CC2)s1)c1ccc(-c2cncn2CCc2ccc(F)cc2)cc1 (stereo not drawn)
OUTPUT: 14

// data source = patent US9975888B2
